The reader will find reported Cell toxicity TC0 values listed item by item below.
system: human hepatoma carcinoma cells (Hep G2) 2.2.15 cell line; assay: Cell toxicity in 2.2.15 cells (cytopathic cells observed for 8 days, Reed-Muench); assay type: cell-based

{"itemSmiles": "CNC(=O)[C@]1(O)C[C@@H](OC(=O)/C=C/c2ccc(O)c(O)c2)[C@@H](O)[C@H](OC(=O)/C=C/c2ccc(O)c(O)c2)C1", "censorSymbol": "=", "Cell toxicity TC0, µg/mL": 1.6}
{"itemSmiles": "CNC(=O)[C@]1(OC(=O)/C=C/c2ccc(O)c(O)c2)C[C@@H](O)[C@@H](O)[C@H](OC(=O)/C=C/c2ccc(O)c(O)c2)C1", "censorSymbol": "=", "Cell toxicity TC0, µg/mL": 0.32}
{"itemSmiles": "O=C(/C=C/c1ccc(O)c(O)c1)O[C@@H]1C[C@](O)(C(=O)NC2CC2)C[C@@H](OC(=O)/C=C/c2ccc(O)c(O)c2)[C@H]1O", "censorSymbol": "=", "Cell toxicity TC0, µg/mL": 1.6}
{"itemSmiles": "CNC(=O)[C@]1(O)C[C@@H](O)[C@@H](O)[C@H](OC(=O)/C=C/c2ccc(O)c(O)c2)C1", "censorSymbol": "=", "Cell toxicity TC0, µg/mL": 8}
{"itemSmiles": "O=C(/C=C/c1ccc(O)c(O)c1)O[C@@H]1C[C@](OC(=O)/C=C/c2ccc(O)c(O)c2)(C(=O)N2CCCC2)C[C@@H](O)[C@H]1O", "censorSymbol": "=", "Cell toxicity TC0, µg/mL": 0.32}
{"itemSmiles": "CNC(=O)[C@]1(O)C[C@@H](OC(=O)/C=C/c2ccc(O)c(O)c2)[C@@H](OC(=O)/C=C/c2ccc(O)c(O)c2)[C@H](OC(=O)/C=C/c2ccc(O)c(O)c2)C1", "censorSymbol": ">", "Cell toxicity TC0, µg/mL": 200}

----------
System: human hepatoma carcinoma cells (Hep G2) 2.2.15 cell line
Test: Cell toxicity in 2.2.15 cells (cytopathic cells observed for 8 days, Reed-Muench)
Type: cell-based
Description: Anti-hepatitis (HBV) DNA virus in vitro of the above partial compounds is tested. human hepatoma carcinoma cells (Hep G2) in the 2.2.15 cell line are transfected by DNA cloning of hepatitis B virus (HBV), the inhibitory effect on cell toxicity and HBV DNA secretion are studied. Half inhibition concentration (IC50) and half toxicity concentration (TC50) of samples are measured, the inhibition ratio to HBV DNA in the 2.2.15 cell culture are obtained respectively. […]

{"molecule": "CNC(=O)[C@]1(OC(=O)/C=C/c2ccc(O)c(O)c2)C[C@@H](O)[C@@H](O)[C@H](OC(=O)/C=C/c2ccc(O)c(O)c2)C1 [3-3]", "censorSymbol": "=", "Cell toxicity TC50, µg/mL": 3.58}
{"molecule": "CNC(=O)[C@]1(O)C[C@@H](O)[C@@H](O)[C@H](OC(=O)/C=C/c2ccc(O)c(O)c2)C1 [3-5]", "censorSymbol": "=", "Cell toxicity TC50, µg/mL": 89.44}
{"molecule": "CNC(=O)[C@]1(O)C[C@@H](OC(=O)/C=C/c2ccc(O)c(O)c2)[C@@H](O)[C@H](OC(=O)/C=C/c2ccc(O)c(O)c2)C1 [3-1]", "censorSymbol": "=", "Cell toxicity TC50, µg/mL": 27.59}
{"molecule": "CNC(=O)[C@]1(O)C[C@@H](OC(=O)/C=C/c2ccc(O)c(O)c2)[C@@H](OC(=O)/C=C/c2ccc(O)c(O)c2)[C@H](OC(=O)/C=C/c2ccc(O)c(O)c2)C1 [3-7]", "censorSymbol": ">", "Cell toxicity TC50, µg/mL": 200}
{"molecule": "O=C(/C=C/c1ccc(O)c(O)c1)O[C@@H]1C[C@](OC(=O)/C=C/c2ccc(O)c(O)c2)(C(=O)N2CCCC2)C[C@@H](O)[C@H]1O [2-3]", "censorSymbol": "=", "Cell toxicity TC50, µg/mL": 3.58}
{"molecule": "O=C(/C=C/c1ccc(O)c(O)c1)O[C@@H]1C[C@](O)(C(=O)NC2CC2)C[C@@H](OC(=O)/C=C/c2ccc(O)c(O)c2)[C@H]1O [1-1]", "censorSymbol": "=", "Cell toxicity TC50, µg/mL": 27.59}

----------
The reader will find reported TC0 (maximum of non toxicity concentration) values listed item by item below.
test system: Hep-2 cell (human laryngocarcinoma cell); test: Toxicity of samples with respect to Hep-2 cell (CPE, Reed-Muench); assay type: cell-based; settings: 72 h
measuredProperty: TC0 (maximum of non toxicity concentration)

{"molecule": "CNC(=O)[C@]1(OC(=O)/C=C/c2ccc(O)c(O)c2)C[C@@H](O)[C@@H](O)[C@H](OC(=O)/C=C/c2ccc(O)c(O)c2)C1 [3-3]", "assaySystem": "Hep-2 cell (human laryngocarcinoma cell)", "result": "37.04 µg/mL"}
{"molecule": "CNC(=O)[C@]1(O)C[C@@H](OC(=O)/C=C/c2ccc(O)c(O)c2)[C@@H](OC(=O)/C=C/c2ccc(O)c(O)c2)[C@H](OC(=O)/C=C/c2ccc(O)c(O)c2)C1 [3-7]", "assaySystem": "Hep-2 cell (human laryngocarcinoma cell)", "result": "37.04 µg/mL"}
{"molecule": "CNC(=O)[C@]1(O)C[C@@H](O)[C@@H](O)[C@H](OC(=O)/C=C/c2ccc(O)c(O)c2)C1 [3-5]", "assaySystem": "Hep-2 cell (human laryngocarcinoma cell)", "result": "12.35 µg/mL"}
{"molecule": "O=C(/C=C/c1ccc(O)c(O)c1)O[C@@H]1C[C@](OC(=O)/C=C/c2ccc(O)c(O)c2)(C(=O)N2CCCC2)C[C@@H](O)[C@H]1O [2-3]", "assaySystem": "Hep-2 cell (human laryngocarcinoma cell)", "result": "4.12 µg/mL"}
{"molecule": "CNC(=O)[C@]1(O)C[C@@H](OC(=O)/C=C/c2ccc(O)c(O)c2)[C@@H](O)[C@H](OC(=O)/C=C/c2ccc(O)c(O)c2)C1 [3-1]", "assaySystem": "Hep-2 cell (human laryngocarcinoma cell)", "result": "37.04 µg/mL"}
{"molecule": "O=C(/C=C/c1ccc(O)c(O)c1)O[C@@H]1C[C@](O)(C(=O)NC2CC2)C[C@@H](OC(=O)/C=C/c2ccc(O)c(O)c2)[C@H]1O [1-1]", "assaySystem": "Hep-2 cell (human laryngocarcinoma cell)", "result": "37.04 µg/mL"}

----------
The reader will find reported TC50 (half toxicity concentration) values listed item by item below.
system: Hep-2 cell (human laryngocarcinoma cell); test: Toxicity of samples with respect to Hep-2 cell (CPE, Reed-Muench); assay type: cell-based; conditions: 72 h

{"itemSmiles": "O=C(/C=C/c1ccc(O)c(O)c1)O[C@@H]1C[C@](O)(C(=O)NC2CC2)C[C@@H](OC(=O)/C=C/c2ccc(O)c(O)c2)[C@H]1O", "TC50 (half toxicity concentration) (µg/mL)": 111.11}
{"itemSmiles": "CNC(=O)[C@]1(O)C[C@@H](OC(=O)/C=C/c2ccc(O)c(O)c2)[C@@H](O)[C@H](OC(=O)/C=C/c2ccc(O)c(O)c2)C1", "TC50 (half toxicity concentration) (µg/mL)": 64.15}
{"itemSmiles": "CNC(=O)[C@]1(O)C[C@@H](OC(=O)/C=C/c2ccc(O)c(O)c2)[C@@H](OC(=O)/C=C/c2ccc(O)c(O)c2)[C@H](OC(=O)/C=C/c2ccc(O)c(O)c2)C1", "TC50 (half toxicity concentration) (µg/mL)": 64.15}
{"itemSmiles": "CNC(=O)[C@]1(O)C[C@@H](O)[C@@H](O)[C@H](OC(=O)/C=C/c2ccc(O)c(O)c2)C1", "TC50 (half toxicity concentration) (µg/mL)": 37.04}
{"itemSmiles": "CNC(=O)[C@]1(OC(=O)/C=C/c2ccc(O)c(O)c2)C[C@@H](O)[C@@H](O)[C@H](OC(=O)/C=C/c2ccc(O)c(O)c2)C1", "TC50 (half toxicity concentration) (µg/mL)": 111.11}
{"itemSmiles": "O=C(/C=C/c1ccc(O)c(O)c1)O[C@@H]1C[C@](OC(=O)/C=C/c2ccc(O)c(O)c2)(C(=O)N2CCCC2)C[C@@H](O)[C@H]1O", "TC50 (half toxicity concentration) (µg/mL)": 12.35}
